Hello, the source for this data is patent US12209079B2, in case you need it.

- SUBJECT_OF_TEST: rhIDO (recombinant human IDO) (Homo sapiens, UniProt P14902)
- Sequence (P14902 whole entry): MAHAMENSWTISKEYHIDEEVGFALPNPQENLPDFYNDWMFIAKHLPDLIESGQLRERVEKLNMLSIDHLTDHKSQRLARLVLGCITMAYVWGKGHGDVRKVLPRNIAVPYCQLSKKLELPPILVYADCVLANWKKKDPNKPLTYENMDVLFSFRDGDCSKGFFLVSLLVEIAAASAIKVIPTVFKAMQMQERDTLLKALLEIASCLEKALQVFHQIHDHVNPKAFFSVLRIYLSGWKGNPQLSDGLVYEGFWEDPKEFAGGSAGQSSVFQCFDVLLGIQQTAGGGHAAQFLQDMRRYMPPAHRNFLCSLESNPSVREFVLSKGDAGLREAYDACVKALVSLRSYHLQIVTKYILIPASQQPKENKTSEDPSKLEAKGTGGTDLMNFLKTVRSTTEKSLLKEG
- RUN_DESCRIPTION: Enzyme assay using rhIDO (rate of kynurenine production)
- Assay type: biochemical
- CONDITION: 2 h; final concentration of the compound 10 μM; rate relative to reaction without compound; read-out: rhIDO-mediated kynurenine production
Counter-ions that a name gives are not always drawn.
For each of the molecules below, state its remaining activity at 10 µM.
Answers are plain numbers, in %.

Here is how some molecules turned out for remaining activity at 10 µM.
>  <MOLECULE>
N=C(N)SCc1cc(Br)ccc1C(=O)NCc1ccc(Cl)c(Cl)c1 [Compound 94, hydrobromide]

>  <remaining activity at 10 µM, %>
80

$$$$
>  <MOLECULE>
Brc1ccc(CSC2=NCN(CC3CC3)CN2)c(CSC2=NCN(CC3CC3)CN2)c1

>  <remaining activity at 10 µM, %>
35

$$$$
>  <MOLECULE>
Clc1ccc(CN2CN=C(SCc3cc(Cl)c(Cl)cc3CSC3=NCN(Cc4ccc(Cl)c(Cl)c4)CN3)NC2)cc1Cl

>  <remaining activity at 10 µM, %>
41

$$$$
>  <MOLECULE>
C/N=C(\NC)SCc1ccccc1CS/C(=N/C)NC

>  <remaining activity at 10 µM, %>
77

$$$$
>  <MOLECULE>
N=C(N)SCc1nc2ccccc2nc1CSC(=N)N [Compound 5, dihydrobromide]

>  <remaining activity at 10 µM, %>
69

$$$$
>  <MOLECULE>
Cc1ccc(CNC(=O)c2ccc(Br)cc2CSC(=N)N)cc1 [Compound 90, hydrobromide]

>  <remaining activity at 10 µM, %>
90

$$$$
>  <MOLECULE>
Fc1ccc(CN2CN=C(SCc3ccccc3CSC3=NCN(Cc4ccc(F)c(Cl)c4)CN3)NC2)cc1Cl

>  <remaining activity at 10 µM, %>
69

$$$$

Report remaining activity at 10 µM for Cc1ccc(C)c(CN2CN=C(SCc3ccccc3CSC3=NCN(Cc4cc(C)ccc4C)CN3)NC2)c1 please.
50

====

- SUBJECT_OF_TEST: TDO in A172 cells (Homo sapiens, UniProt P48775)
- Construct: endogenous in cells; host or cells: A172 cells
- Sequence (P48775 whole entry): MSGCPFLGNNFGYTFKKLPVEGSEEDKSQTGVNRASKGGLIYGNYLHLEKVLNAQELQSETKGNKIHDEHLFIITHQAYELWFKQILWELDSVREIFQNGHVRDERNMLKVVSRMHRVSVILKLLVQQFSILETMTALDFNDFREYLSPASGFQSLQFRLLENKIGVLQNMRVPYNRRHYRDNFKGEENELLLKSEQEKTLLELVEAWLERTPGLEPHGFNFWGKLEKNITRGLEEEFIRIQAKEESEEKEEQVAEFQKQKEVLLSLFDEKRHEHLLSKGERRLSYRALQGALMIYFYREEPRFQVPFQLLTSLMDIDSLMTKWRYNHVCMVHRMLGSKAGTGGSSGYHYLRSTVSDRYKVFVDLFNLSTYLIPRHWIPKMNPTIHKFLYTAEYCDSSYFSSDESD
- RUN_DESCRIPTION: TDO cell-based assay, kynurenine production in A172 cells
- CONDITION: A 172; final concentration of the compound 10 μM; rate relative to culture without compound
Where a name gives a salt, the structure may show the parent alone.
MEASUREMENT_LABEL: remaining activity at 10 µM (%)
Numbers only, in %.

Check out these entries, answers already filled in.
>  <MOLECULE>
N/C(=N\c1ccc(F)c(Cl)c1)SCc1ccc(F)cc1CS/C(N)=N/c1ccc(F)c(Cl)c1 [Compound 129, dihydrobromide]

>  <SUBJECT_OF_TEST>
TDO in A172 cells (Homo sapiens, UniProt P48775)

>  <UNIT_INFO>
%

>  <remaining activity at 10 µM>
14

$$$$
>  <MOLECULE>
Cc1ccc(C)c(CN2CN=C(SCc3ccccc3CSC3=NCN(Cc4cc(C)ccc4C)CN3)NC2)c1

>  <SUBJECT_OF_TEST>
TDO in A172 cells (Homo sapiens, UniProt P48775)

>  <UNIT_INFO>
%

>  <remaining activity at 10 µM>
1

$$$$
>  <MOLECULE>
C/N=C(\NC)SCc1ccccc1CS/C(=N/C)NC

>  <SUBJECT_OF_TEST>
TDO in A172 cells (Homo sapiens, UniProt P48775)

>  <UNIT_INFO>
%

>  <remaining activity at 10 µM>
20

$$$$
>  <MOLECULE>
N=C(N)[Se]Cc1ccccc1C[Se]C(=N)N [Compound 108, dihydrobromide]

>  <SUBJECT_OF_TEST>
TDO in A172 cells (Homo sapiens, UniProt P48775)

>  <UNIT_INFO>
%

>  <remaining activity at 10 µM>
41

$$$$
>  <MOLECULE>
CNC(=O)Cc1ccccc1CSC(=N)N [Compound 62, hydrobromide]

>  <SUBJECT_OF_TEST>
TDO in A172 cells (Homo sapiens, UniProt P48775)

>  <UNIT_INFO>
%

>  <remaining activity at 10 µM>
56

$$$$

For each listed entry, give its remaining activity at 10 µM.
1. N/C(=N\c1ccc(F)cc1)SCc1cc(Cl)c(Cl)cc1CS/C(N)=N/c1ccc(F)cc1 [Compound 137, dihydrobromide]
2. Brc1ccc(CSC2=NCN(CC3CCCCC3)CN2)c(CSC2=NCN(CC3CCCCC3)CN2)c1
3. N/C(=N\c1ccc(F)c(Cl)c1)SCc1cc(Br)ccc1C(=O)NCc1ccc(F)cc1 [Compound 88, hydrobromide]

1: 2; 2: 5; 3: 28

====

Give measured remaining activity at 10 µM for each item. Keep answers brief.
- SUBJECT_OF_TEST: rhIDO (recombinant human IDO) (Homo sapiens, UniProt P14902)
- RUN_DESCRIPTION: Enzyme assay using rhIDO (rate of kynurenine production)
- Type: biochemical
- CONDITION: 2 h; final concentration of the compound 10 μM; rate relative to reaction without compound; read-out: rhIDO-mediated kynurenine production
Where a name gives a salt, the structure may show the parent alone.
Answers are plain numbers, in %.

Record excerpt, results attached:
>  <COMPOUND>
c1cnc(SCc2ccccc2CSc2ncccn2)nc1

>  <SUBJECT_OF_TEST>
rhIDO (recombinant human IDO) (Homo sapiens, UniProt P14902)

>  <UNIT_INFO>
%

>  <NUMERIC_RESULT>
66

$$$$
>  <COMPOUND>
N=C(N)SCc1ccccc1CC(=O)NCCC1CCCCC1 [Compound 69, hydrobromide]

>  <SUBJECT_OF_TEST>
rhIDO (recombinant human IDO) (Homo sapiens, UniProt P14902)

>  <UNIT_INFO>
%

>  <NUMERIC_RESULT>
76

$$$$
>  <COMPOUND>
Cc1ccc(C)c(CCN2CN=C(SCc3ccccc3CSC3=NCN(CCc4cc(C)ccc4C)CN3)NC2)c1

>  <SUBJECT_OF_TEST>
rhIDO (recombinant human IDO) (Homo sapiens, UniProt P14902)

>  <UNIT_INFO>
%

>  <NUMERIC_RESULT>
27

$$$$
>  <COMPOUND>
Fc1ccc(CN2CN=C(SCc3cc(Cl)c(Cl)cc3CSC3=NCN(Cc4ccc(F)c(Cl)c4)CN3)NC2)cc1Cl

>  <SUBJECT_OF_TEST>
rhIDO (recombinant human IDO) (Homo sapiens, UniProt P14902)

>  <UNIT_INFO>
%

>  <NUMERIC_RESULT>
24

$$$$
>  <COMPOUND>
Cc1ccc(CSC(=N)N)c(CSC(=N)N)c1 [Compound 12, dihydrobromide]

>  <SUBJECT_OF_TEST>
rhIDO (recombinant human IDO) (Homo sapiens, UniProt P14902)

>  <UNIT_INFO>
%

>  <NUMERIC_RESULT>
20

$$$$
>  <COMPOUND>
N=C(N)SCc1cc(Br)ccc1C(=O)NCc1ccc(Br)cc1 [Compound 97, hydrobromide]

>  <SUBJECT_OF_TEST>
rhIDO (recombinant human IDO) (Homo sapiens, UniProt P14902)

>  <UNIT_INFO>
%

>  <NUMERIC_RESULT>
85

$$$$

Dear colleague, could you please provide remaining activity at 10 µM for the compounds listed below?
1. CNC(=O)c1ccccc1CSC(=N)N [Compound 92, hydrobromide]
2. Br.N#Cc1ccc(CNC(=O)c2cc(Br)ccc2CSC(=N)N)cc1 [Compound 103, hydrobromide]

1: 90; 2: 0

====

- SUBJECT_OF_TEST: rhTDO (recombinant human TDO) (Homo sapiens)
- Sequence (P48775 whole entry): as above
- RUN_DESCRIPTION: Enzyme assay using rhTDO (rate of kynurenine production)
- Format: biochemical
- CONDITION: 2 h; final concentration of the compound 10 μM; rate relative to reaction without compound; read-out: rhTDO-mediated kynurenine production
Structures can show the parent of a compound that is named as a salt.
MEASUREMENT_LABEL: remaining activity at 10 µM (%)
Answers are plain numbers, in %.

As a guide, the following entries are already answered.
>  <MOLECULE>
CNC(=N)SCc1ccccc1CSC(=N)NC [Compound 11, dihydrochloride]

>  <UNIT_INFO>
%

>  <remaining activity at 10 µM>
58

$$$$
>  <MOLECULE>
N=C(N)SCc1cc(Br)ccc1C(=O)NCc1ccc(C(F)(F)F)cc1 [Compound 114, hydrobromide]

>  <UNIT_INFO>
%

>  <remaining activity at 10 µM>
36

$$$$
>  <MOLECULE>
CC(C)(C)c1ccc(CSC(=N)N)c(CSC(=N)N)c1 [Compound 4, dihydrobromide]

>  <UNIT_INFO>
%

>  <remaining activity at 10 µM>
56

$$$$
>  <MOLECULE>
N=C(N)SCc1ccccc1CC(=O)NCC1CCCCC1 [Compound 65, hydrobromide]

>  <UNIT_INFO>
%

>  <remaining activity at 10 µM>
76

$$$$
>  <MOLECULE>
N=C(N)SCc1cccc(F)c1CSC(=N)N [Compound 13, dihydrobromide]

>  <UNIT_INFO>
%

>  <remaining activity at 10 µM>
9

$$$$

Hello, I would appreciate it if you could give remaining activity at 10 µM for each entry below.
1. Br.Br.N/C(=N\c1ccc(F)cc1F)SCc1ccccc1CS/C(N)=N/c1ccc(F)cc1F
2. N#Cc1ccc(CNC(=O)c2ccc(Br)cc2CS/C(N)=N/c2ccc(F)c(Cl)c2)cc1 [Compound 85, hydrobromide]

6
50

Sample N#Cc1ccc(CNC(=O)c2cc(Br)ccc2C[Se]C(=N)N)cc1 [Compound 110, hydrobromide] — what was its remaining activity at 10 µM?
59
